Biological target: HLA-B*07:02
Test: IEDB peptide-MHC binding, purified MHC/direct/fluorescence; filed as Kd, often an IC50 or EC50 that approximates it; bounds were set here for any values at or beyond the usual limits of such assays
Settings: source organism: Cowpox virus
attribute_measured: Kd

Retrieve Kd measured for ILQDRIRMY and print it.
≥ 20 µM

---

Target: HLA-B*57:01
Experiment: IEDB peptide-MHC binding, purified MHC/direct/fluorescence; filed as Kd, often an IC50 or EC50 that approximates it; bounds were set here for any values at or beyond the usual limits of such assays
Details: source organism: West Nile virus
attribute_measured: Kd (µM)
Numeric only. Scale: µM

Specify Kd for VSRLEHQMW and stop.
0.0905

---

Molecular target: HLA-A*03:01
Assay: IEDB peptide-MHC binding, purified MHC/direct/fluorescence; filed as Kd, often an IC50 or EC50 that approximates it; bounds were set here for any values at or beyond the usual limits of such assays
Conditions: source organism: Ebola virus - Gabon (1994-1997)
attribute_measured: Kd (nM)
Express it in nM; write the number only.

Name the recorded Kd of the item FTFDLTALK in your answer.
229

---

Target: HLA-A*31:01
Test: IEDB peptide-MHC binding, purified MHC/direct/fluorescence; filed as Kd, often an IC50 or EC50 that approximates it; bounds were set here for any values at or beyond the usual limits of such assays
Conditions: source organism: Pseudomonas aeruginosa
attribute_measured: Kd (µM)
# unit: µM | format: bare number

In one line, give reported Kd of the entry AYFATPASV .
0.207

---

Molecular target: HLA-A*02:03
Test: IEDB peptide-MHC binding, purified MHC/direct/fluorescence; filed as Kd, often an IC50 or EC50 that approximates it; bounds were set here for any values at or beyond the usual limits of such assays
Settings: source organism: Orthohantavirus tulaense
attribute_measured: Kd

Please look at this sequence and report its Kd: AESICSYWL
≥ 20 µM

---

Biological target: HLA-B*39:01
Assay: IEDB peptide-MHC binding, purified MHC/direct/fluorescence; filed as Kd, often an IC50 or EC50 that approximates it; bounds were set here for any values at or beyond the usual limits of such assays
Details: source organism: Listeria monocytogenes serotype 4b str. H7858
pKd: −log10 of the molar value.
attribute_measured: pKd

Fill in reported pKd for this entry: AALEGLSGF
≤ 4.70

---

Target: HLA-B*15:01
Assay: IEDB peptide-MHC binding, purified MHC/competitive/fluorescence; bounds were set here for any values at or beyond the usual limits of such assays
Details: source organism: Vaccinia virus
pIC50: −log10 of the molar value.
Quick reference for pIC50 among some sequences

>>> df
   macromolecule_sequence  assay_target  attribute_measured   value
0               GCLRIQSLM   HLA-B*15:01               pIC50  ≤ 3.23

Indicate its recorded pIC50; the sequence in question is KQKFPYEGG
≤ 3.63

---

Molecular target: HLA-B*54:01
Test: IEDB peptide-MHC binding, purified MHC/competitive/radioactivity; filed as Kd, often an IC50 or EC50 that approximates it; bounds were set here for any values at or beyond the usual limits of such assays
Conditions: source organism: Mammarenavirus lassaense
attribute_measured: pKd
// pKd is dimensionless: -log10 of concentration (M)

   macromolecule_sequence  assay_target  value
0               CPNSYDSIM   HLA-B*54:01   5.80

Read the next record carefully.
Please supply the value of reported pKd for the item FPSIFSTEV
8.35

---

Biological target: HLA-B*44:02
Experiment: IEDB peptide-MHC binding, purified MHC/competitive/radioactivity; filed as Kd, often an IC50 or EC50 that approximates it; bounds were set here for any values at or beyond the usual limits of such assays
Conditions: source organism: Mammarenavirus machupoense
Reported Kd values for the following sequences.
Answer in µM, number only, no unit symbol.

// solved cases for Kd follow
>>> df
   macromolecule_sequence  attribute_measured  value
0              PEIWLQLNTL                  Kd   10.2
1              RECYVQRFYL                  Kd   1.64

Shifting focus to the sequence that follows.
Return reported Kd. Input sequence: PEIWLQLNT
14.4

---

Target: HLA-A*02:01
Assay: IEDB peptide-MHC binding, purified MHC/direct/fluorescence; filed as Kd, often an IC50 or EC50 that approximates it; bounds were set here for any values at or beyond the usual limits of such assays
Settings: source organism: dengue virus type 3
pKd: −log10 of the molar value.
attribute_measured: pKd

State its pKd for this sequence: TSEHGGRAY
≤ 4.70

---

Molecular target: HLA-B*15:09
Experiment: IEDB peptide-MHC binding, purified MHC/direct/fluorescence; filed as Kd, often an IC50 or EC50 that approximates it; bounds were set here for any values at or beyond the usual limits of such assays
Conditions: source organism: Ravn virus - Ravn, Kenya, 1987
attribute_measured: Kd

Could you please provide reported Kd for THYSGNIVH ? Thanks!
46 nM

---

Biological target: HLA-A*01:01
Assay: IEDB peptide-MHC binding, purified MHC/direct/fluorescence; filed as Kd, often an IC50 or EC50 that approximates it; bounds were set here for any values at or beyond the usual limits of such assays
Conditions: source organism: Mycobacterium tuberculosis variant bovis BCG str. Pasteur 1173P2
pKd: −log10 of the molar value.
attribute_measured: pKd

Recall and state the measured pKd for HPTSRRELL .
≤ 4.70

---

Biological target: HLA-B*15:01
Assay: IEDB peptide-MHC binding, purified MHC/competitive/fluorescence; filed as Kd, often an IC50 or EC50 that approximates it; bounds were set here for any values at or beyond the usual limits of such assays
Settings: source organism: Yersinia mollaretii ATCC 43969
attribute_measured: Kd

Please indicate Kd recorded for DEQEFFYSQ
≥ 20 µM

---

Molecular target: HLA-A*68:01
Assay: IEDB peptide-MHC binding, purified MHC/competitive/radioactivity; filed as Kd, often an IC50 or EC50 that approximates it; bounds were set here for any values at or beyond the usual limits of such assays
Details: source organism: Hepatitis C virus (isolate 1)
pKd: −log10 of the molar value.
attribute_measured: pKd

Could you please provide reported pKd for KLVALGINAV ? Thanks!
≤ 4.15

---

Biological target: HLA-A*02:01
Test: IEDB peptide-MHC binding, purified MHC/competitive/fluorescence; filed as Kd, often an IC50 or EC50 that approximates it; bounds were set here for any values at or beyond the usual limits of such assays
Details: source organism: Myxoma virus
attribute_measured: Kd
Please provide the amount together with its unit, number first.

Read off the recorded Kd for KVDTTHVSKV
42.3 nM

---

Molecular target: HLA-A*02:03
Test: IEDB peptide-MHC binding, purified MHC/direct/fluorescence; filed as Kd, often an IC50 or EC50 that approximates it; bounds were set here for any values at or beyond the usual limits of such assays
Conditions: source organism: Orthohantavirus andesense
attribute_measured: Kd

Provide one value: measured Kd of EVLKAMSLY
≥ 20 µM

---

Target: HLA-A*02:03
Assay: IEDB peptide-MHC binding, purified MHC/competitive/radioactivity; filed as Kd, often an IC50 or EC50 that approximates it; bounds were set here for any values at or beyond the usual limits of such assays
Conditions: source organism: Mammarenavirus machupoense
attribute_measured: Kd (µM)
Give the number; µM is assumed, so skip it.

Read the entry LNKSDSSWAV and write its reported Kd.
5.25

---

Target: HLA-C*12:03
Experiment: IEDB peptide-MHC binding, purified MHC/direct/fluorescence; filed as Kd, often an IC50 or EC50 that approximates it; bounds were set here for any values at or beyond the usual limits of such assays
Details: source organism: Mus musculus
attribute_measured: Kd

Note down Kd recorded for YTFCGTIEY
≤ 1 nM

---

Target: HLA-B*27:03
Assay: IEDB peptide-MHC binding, purified MHC/competitive/fluorescence; filed as Kd, often an IC50 or EC50 that approximates it; bounds were set here for any values at or beyond the usual limits of such assays
Settings: source organism: Mus musculus
pKd: −log10 of the molar value.
attribute_measured: pKd

Quote pKd reported for YTFCGTIEY please.
≤ 4.70

---

Target: HLA-A*03:01
Assay: IEDB peptide-MHC binding, purified MHC/direct/fluorescence; filed as Kd, often an IC50 or EC50 that approximates it; bounds were set here for any values at or beyond the usual limits of such assays
Conditions: source organism: Limestone Canyon virus
pKd: −log10 of the molar value.
attribute_measured: pKd

Answer with the recorded pKd of SPVMGVIGF only.
≤ 4.70

---

Molecular target: HLA-A*30:01
Test: IEDB peptide-MHC binding, purified MHC/competitive/radioactivity; filed as Kd, often an IC50 or EC50 that approximates it; bounds were set here for any values at or beyond the usual limits of such assays
Details: source organism: Dengue virus 2 Jamaica/1409/1983
attribute_measured: pKd
Scale note: pKd = -log10(concentration in M).

Output pKd of MLRTRVGTK
6.48
